The measured values listed here are drawn from paper PMC12396409.

System: P. falciparum 3D7 parasites
Experiment: P. falciparum growth inhibition assay, 2-cycle (120 h treatment), delayed-death screen and dose-response
Format: cell-based, Plasmodium falciparum
Details: P. falciparum 3D7, 120 h, parasite screen at 2 μg/mL, % growth, replicate 2
Decision: Pf_120h_%Growth_Rep2 compared against 20%; not below it gives TRUE, below it gives FALSE.

Example entries begin here.
compound	measured_target	group
O=C(O)CC[N+](=O)[O-] [BIA-N1694]	P. falciparum 3D7 parasites	FALSE
NC(=O)c1cccc2nc3ccccc3nc12 [BIA-O1527]	P. falciparum 3D7 parasites	TRUE
COc1c(C)c2c(c(O)c1C/C=C(\C)CCC(=O)O)C(=O)OC2 [BIA-M1207]	P. falciparum 3D7 parasites	TRUE
CC1=C[C@H]2O[C@@H]3[C@H](O)[C@@H](O)[C@](C)([C@@]2(CO)[C@H](O)C1=O)[C@]31CO1 [BIA-N1920]	P. falciparum 3D7 parasites	FALSE

// switching to the query compound
Please tell me: is the compound CCCCCCCCCCCCCCCCCC(=O)N[C@H]1CCOC1=O [BIA-O1501] at or over 20% in terms of Pf_120h_%Growth_Rep2? TRUE

---

Recorded activity at 2 µg/mL, one value per entry.
Test system: P. falciparum 3D7 parasites
Assay: P. falciparum growth inhibition assay, 2-cycle (120 h treatment), delayed-death screen and dose-response
Assay type: cell-based, Plasmodium falciparum
Conditions: Plasmodium falciparum, 3D7; P. falciparum, 120 h, parasite screen 2 μg/mL, % growth, replicate 2; read-out: Pf_120h_%Growth_Rep2
Output spec: scalar in %, unitless text.

The cases that follow already have their activity at 2 µg/mL on record.
molecule	measure_unit	readout_value
COc1cc(C(=O)O)c2c(c1C)OC(=O)c1c(C)cc(O)c(C=O)c1O2	%	141
CCCC[C@@]1(OC(=O)CCC(=O)O)CC[C@]2(CC[C@H](C)[C@@H](C/C=C(C)/C=C/[C@H](O)[C@@H](C)/C=C/C(=O)O)O2)O[C@H]1/C=C/C(C)=C/C(=O)O	%	88.5
CCCCCC1=C/C(=C/c2[nH]c(-c3ccc[nH]3)cc2OC)N=C1C	%	19.4
C[C@@H]1C[C@H]2O[C@@H]2/C=C\C=C\C(=O)Cc2c(Cl)c(O)cc(O)c2C(=O)O1	%	55
CO[C@H]1C[C@H](O[C@@H]2/C(C)=C/C[C@@H]3C[C@@H](C[C@]4(CC[C@H](C)[C@@H](C5CCCCC5)O4)O3)OC(=O)[C@@H]3C=C(C)/C(=N/O)[C@H]4OC/C(=C\C=C\[C@@H]2C)[C@]43O)O[C@@H](C)[C@@H]1O [selamectin, reference compound]	%	8.34

Alright, here's another molecule for you.
Field request: activity at 2 µg/mL | item: "CN(C)[C@@H]1C(O)=C(C(=O)NCN2CCCC2)C(=O)[C@@]2(O)C(O)=C3C(=O)c4c(O)cccc4[C@@](C)(O)[C@H]3C[C@@H]12" 135

---

System: P. falciparum 3D7 parasites
Assay: P. falciparum growth inhibition assay, 2-cycle (120 h treatment), delayed-death screen and dose-response
Assay type: cell-based, Plasmodium falciparum
Settings: P. falciparum, 120 h, parasite screen 2 μg/mL, % growth, replicate 2
metric_name: Pf_120h_%Growth_Rep2 (%)
Output spec: scalar in %, unitless text.

The cases that follow already have their Pf_120h_%Growth_Rep2 on record.
molecule	measured_target	Pf_120h_%Growth_Rep2 (%)
C=C1CC[C@H](O)C(C)(C)[C@@H]1CC/C(C)=C/CC/C(C)=C/Cc1c(O)cc(C)oc1=O	P. falciparum 3D7 parasites	7.76
COC(=O)C1=CO[C@@H](C)[C@@H]2CN3CCc4c([nH]c5cc(OC)c(OC)cc45)[C@H]3C[C@H]12	P. falciparum 3D7 parasites	13.59
CC[C@H]1CCC[C@H](O)[C@@H](C)C(=O)C2=C[C@@H]3[C@@H](C=C(C)[C@@H]4C[C@@H](O[C@@H]5O[C@@H](C)[C@H](OC)[C@@H](OC)[C@H]5OC)C[C@@H]34)[C@@H]2CC(=O)O1 [Spinosyn D 17-pseudoaglycone]	P. falciparum 3D7 parasites	19.25
COc1cc(O)c2c(c1)C(=O)c1cc3c(c(O)c1C2=O)C(OC1OC(C)C(OC)C(O)C1OC)C(OC)C(C)(O)C3=O (stereo not drawn)	P. falciparum 3D7 parasites	80.04
COc1cc(/C=C/C(=O)O)cc(OC)c1O	P. falciparum 3D7 parasites	-9.79

Report Pf_120h_%Growth_Rep2 for "C[C@@H]1CC[C@H]2C(C)(C)[C@H](O)CC[C@]2(C)[C@@]12Cc1c(O)cc3c(c1O2)CNC3=O" tested on P. falciparum 3D7 parasites. 25.01

---

Tested on: P. falciparum 3D7 parasites
Experiment: P. falciparum growth inhibition assay, 2-cycle (120 h treatment), delayed-death screen and dose-response
Type: cell-based, Plasmodium falciparum
Settings: Plasmodium falciparum, 3D7; library screen at 2 μg/mL, 120 h, % growth, replicate 2; read-out: Pf_120h_%Growth_Rep2
*1 amine or outer side, *2 acyl side, *3 side chain or, on linkers, in order; H or OH if unused. Where a SMILES comes first, the peptide text is derived from it. Bridges are numbered along the chain shown (N, C = ends). Roman numbers before positions name the chains, in order. [ ]: non-standard residue; d: D form. The star is where a group is joined. Actinocin(9to1) = Cc1c2oc3c(C)ccc(C(=O)[*:1])c3nc-2c(C(=O)[*:2])c(N)c1=O; pTerphenylCO(4''-OnC5H11) = CCCCCOc1ccc(-c2ccc(-c3ccc(C(=O)*)cc3)cc2)cc1; Orn(4R-OH,5R-OH) = O=C([C@H](C[C@@H](O)[C@@H](O)N[*:3])N[*:1])[*:2]; hTyr(3S-OH,4S-OH) = N[C@H](C(=O)O)[C@H](O)[C@@H](O)c1ccc(O)cc1; Ileψ(thiazoline)Cys = CC[C@H](C)[C@H](N)C1=N[C@H](C(=O)*)CS1; Pro(3S-OH,4S-Me) = C[C@H]1CN[C@H](C(=O)O)[C@H]1O; Hyp = O=C(O)[C@@H]1C[C@@H](O)CN1; NMeV = CN[C@H](C(=O)O)C(C)C; dOrn = NCCC[C@@H](N)C(=O)O; Sar = CNCC(=O)O
metric_name: activity at 2 µg/mL (%)
Output spec: scalar in %, unitless text.

The cases that follow already have their activity at 2 µg/mL on record.
molecule	measure_unit	activity at 2 µg/mL
Cc1c2oc3c(C)ccc(C(=O)N[C@@H]4C(=O)N[C@H](C(C)C)C(=O)N5CCC[C@H]5C(=O)N(C)CC(=O)N(C)[C@@H](C(C)C)C(=O)O[C@@H]4C)c3nc-2c(C(=O)N[C@@H]2C(=O)N[C@H](C(C)C)C(=O)N3CCC[C@H]3C(=O)N(C)CC(=O)N(C)[C@@H](C(C)C)C(=O)O[C@@H]2C)c(N)c1=O [Actinomycin D] (I: T[dV]P[Sar][NMeV] / II: T[dV]P[Sar][NMeV]; ester I:1-I:C, II:1-II:C; linker I:N-II:N via Actinocin(9to1))	%	-5.71
CCCCCOc1ccc(-c2ccc(-c3ccc(C(=O)N[C@H]4C[C@@H](O)[C@@H](O)NC(=O)[C@@H]5[C@@H](O)[C@@H](C)CN5C(=O)[C@H]([C@@H](C)O)NC(=O)[C@H]([C@H](O)[C@@H](O)c5ccc(O)cc5)NC(=O)[C@@H]5C[C@@H](O)CN5C(=O)[C@H]([C@@H](C)O)NC4=O)cc3)cc2)cc1 [Anidulafungin] ({pTerphenylCO(4''-OnC5H11)}-[Orn(4R-OH,5R-OH)]T[Hyp][hTyr(3S-OH,4S-OH)]T[Pro(3S-OH,4S-Me)]; lactam 1-C)	%	103
CC1(C)CC[C@]2(C(=O)O)CC[C@]3(C)C(=CC[C@@H]4[C@@]5(C)C[C@@H](O)[C@H](O)[C@@](C)(CO)[C@@H]5CC[C@]43C)[C@@H]2C1	%	76.3
O=c1c(-c2ccc(O)cc2)coc2cc(O)cc(O)c12	%	111
CC(C)[C@H]1C(=O)O[C@H](C(C)C)C(=O)N(C)[C@@H](C(C)C)C(=O)O[C@H](C(C)C)C(=O)N(C)[C@@H](C(C)C)C(=O)O[C@H](C(C)C)C(=O)N1C	%	4.15

Field request: activity at 2 µg/mL | item: CC[C@H](C)[C@H](N)C1=N[C@H](C(=O)N[C@@H](CC(C)C)C(=O)N[C@H](CCC(=O)O)C(=O)N[C@H](C(=O)N[C@H]2CCCCNC(=O)[C@H](CC(N)=O)NC(=O)[C@@H](CC(=O)O)NC(=O)[C@H](Cc3cnc[nH]3)NC(=O)[C@@H](Cc3ccccc3)NC(=O)[C@H]([C@@H](C)CC)NC(=O)[C@@H](CCCN)NC2=O)[C@@H](C)CC)CS1 [Bacitracin A] ({Ileψ(thiazoline)Cys}-L[dE]IK[dOrn]I[dF]H[dD]N; lactam 4-C) 94.6

Another molecule: "C=C(C)[C@@H]1CC[C@]2(C(=O)O)CC[C@]3(C)[C@H](CC[C@@H]4[C@@]5(C)CC[C@H](O)C(C)(C)[C@@H]5CC[C@]43C)[C@@H]12" 59.9

Another molecule: "CO/C1=C\C(C)=C\[C@@H](C)[C@@H](O)[C@@H](C)C/C(C)=C/C=C/[C@H](OC)[C@@H]([C@@H](C)[C@@H](O)[C@H](C)[C@@]2(O)C[C@@H](O)[C@H](C)[C@@H](C(C)C)O2)OC1=O" 9.47

Another molecule: "C=CC(C)(C)c1[nH]c2c(CC=C(C)C)cc(CC=C(C)C)cc2c1C[C@@H]1NC(=O)[C@H](C)NC1=O" 39.3

Another molecule: CC(=O)OCC1=C[C@@H]2OC(=O)C3=CO[C@@H](O[C@@H]4O[C@H](CO)[C@@H](O)[C@H](O)[C@H]4O)[C@H]1[C@@H]32 [Asperuloside] 94.6
